Assay: Blood and brain drug concentrations in satellite animals
Format: in vivo
Settings: CD, rat, whole blood, subcutaneous, 1 mg/kg, ENa8 1 mg/kg, ENK6 veh; rat satellite animals n=2; read-out: Blood ENa8
PARAMETER: concentration at 30 min (µg/mL)
Reply numerically in µg/mL, unit not repeated.

Fill in: concentration at 30 min of Cl.NC(=O)[C@@H]1CC[C@H](c2ccc(OCc3ccccc3F)cc2)N1 [ENa8, hydrochloride] is ___
0.188

---

Assay: Blood and brain drug concentrations in satellite animals
Assay type: in vivo
Settings: CD, rat, brain, intraperitoneal, ENK6 30 mg/kg + ENa8 3 mg/kg; rat satellite animals n=2; read-out: Brain ENK6
PARAMETER: concentration at 60 min
The reply should read as a number followed by its unit.

Fill in: concentration at 60 min of COc1ccc(-n2nnnc2C(F)(F)F)cc1CN[C@H]1CCCN[C@H]1c1ccccc1.Cl.Cl [ENK6, dihydrochloride] is ___
881 ng/g

---

Assay: Blood and brain drug concentrations in satellite animals
Format: in vivo
Details: CD, rat, brain, subcutaneous, ENa8 1 mg/kg + ENK6 30 mg/kg; rat satellite animals n=2; read-out: Brain ENa8
PARAMETER: concentration at 30 min (ng/g)
Reply numerically in ng/g, unit not repeated.

Fill in: concentration at 30 min of Cl.NC(=O)[C@@H]1CC[C@H](c2ccc(OCc3ccccc3F)cc2)N1 [ENa8, hydrochloride] is ___
1340

---

Experiment: Blood and brain drug concentrations in satellite animals
Format: in vivo
Details: CD, rat, brain, subcutaneous, ENa8 3 mg/kg + ENK6 30 mg/kg; rat satellite animals n=2; read-out: Brain ENa8
PARAMETER: concentration at 30 min (ng/g)
Reply numerically in ng/g, unit not repeated.

Fill in: concentration at 30 min of Cl.NC(=O)[C@@H]1CC[C@H](c2ccc(OCc3ccccc3F)cc2)N1 [ENa8, hydrochloride] is ___
2620

---

Assay: Blood and brain drug concentrations in satellite animals
Format: in vivo
Conditions: CD, rat, whole blood, subcutaneous, 3 mg/kg, ENa8 3 mg/kg, ENK6 veh; rat satellite animals n=2; read-out: Blood ENa8
Experimental: […] Blood and brain samples were taken for analysis of the drug concentrations in these compartments. All doses were calculated as base. ENa8 was dosed via the subcutaneous (s.c.) route at 1 ml/kg in a 2% v/v DMSO/saline vehicle 30 minutes prior to test. Compound ENK6 was dosed with via the intraperitoneal (i.p.) route 60 minutes before the test. ENK6 was dissolved in saline.
PARAMETER: concentration at 30 min (ng/mL)
Reply numerically in ng/mL, unit not repeated.

Fill in: concentration at 30 min of Cl.NC(=O)[C@@H]1CC[C@H](c2ccc(OCc3ccccc3F)cc2)N1 [ENa8, hydrochloride] is ___
349

---

Assay: Blood and brain drug concentrations in satellite animals
Type: in vivo
Conditions: CD, rat, whole blood, subcutaneous, ENa8 3 mg/kg + ENK6 30 mg/kg; rat satellite animals n=2; read-out: Blood ENa8
PARAMETER: concentration at 30 min (ng/mL)
Reply numerically in ng/mL, unit not repeated.

Fill in: concentration at 30 min of Cl.NC(=O)[C@@H]1CC[C@H](c2ccc(OCc3ccccc3F)cc2)N1 [ENa8, hydrochloride] is ___
456

---

Assay: Blood and brain drug concentrations in satellite animals
Type: in vivo
Conditions: CD, rat, brain, intraperitoneal, 30 mg/kg, ENK6 30 mg/kg, ENa8 veh; rat satellite animal n=1; read-out: Brain ENK6
PARAMETER: concentration at 60 min (ng/g)
Reply numerically in ng/g, unit not repeated.

Fill in: concentration at 60 min of COc1ccc(-n2nnnc2C(F)(F)F)cc1CN[C@H]1CCCN[C@H]1c1ccccc1.Cl.Cl [ENK6, dihydrochloride] is ___
1510
